# System: HDQ-P1
# Assay explanation: drug sensitivity score (DSS), CellTox Green (DSS (AUC-based score)); higher = stronger drug effect (viability inhibition or cytotoxicity); extreme values may be limits of the assay
# Measurement conditions: incubation time: 72 h
Listed next: entries and their corresponding drug sensitivity score.
Assay readout: drug sensitivity score

INSERT INTO assay_data (compound, endpoint_value) VALUES
  ('CC1(C)NC(=O)N(c2ccc([N+](=O)[O-])c(C(F)(F)F)c2)C1=O [Nilutamide]', 0),
  ('CC(C)Cn1cnc2c(N)nc3ccccc3c21', 1.63),
  ('C#Cc1cccc(Nc2ncnc3cc(OCCOC)c(OCCOC)cc23)c1', 0),
  ('CN(C)/N=N/c1[nH]cnc1C(N)=O', 0),
  ('CN[C@@H]1C[C@H]2O[C@@](C)([C@@H]1OC)n1c3ccccc3c3c4c(c5c6ccccc6n2c5c31)C(=O)N[C@H]4O', 14.7),
  ('N.N.[Cl][Pt][Cl] [Cisplatin]', 0),
  ('CCC1(c2ccc(N)cc2)CCC(=O)NC1=O (centres undefined) [Aminoglutethimide]', 0),
  ('O=C(CCCCCCC(=O)Nc1ccc([C@H]2O[C@@H](CSc3nc(-c4ccccc4)c(-c4ccccc4)o3)C[C@@H](c3ccc(CO)cc3)O2)cc1)NO', 0),
  ('COc1cc2nccc(Oc3ccc(NC(=O)C4(C(=O)Nc5ccc(F)cc5)CC4)cc3)c2cc1OC [Cabozantinib]', 0),
  ('C=C(c1ccc(C(=O)O)cc1)c1cc2c(cc1C)C(C)(C)CCC2(C)C', 0),
  ('Cn1c(Nc2ccc(C(F)(F)F)cc2)nc2cc(Oc3ccnc(-c4ncc(C(F)(F)F)[nH]4)c3)ccc21', 0),
  ('Oc1nc(-c2ccc(C(F)(F)F)cc2)nc2c1CSCC2', 3.77),
  ('COc1cc([C@@H]2c3cc4c(cc3[C@@H](O[C@@H]3O[C@@H]5CO[C@@H](C)O[C@H]5[C@H](O)[C@H]3O)[C@H]3COC(=O)[C@H]23)OCO4)cc(OC)c1O [Etoposide]', 0),
  ('CC(=O)Nc1ccc(C(=O)Nc2ccccc2N)cc1', 0);

----------
# Tested on: DU-4475
# Assay explanation: normalised viability (% of control), CellTiter-Blue; higher = more viable cells (about 100 = DMSO control)
# Measurement conditions: 1 nM; incubation time: 72 h
Catalogue of normalised viability readings, one per entry.
Assay readout: normalised viability (%)

INSERT INTO measurements (compound, units_label, endpoint_value) VALUES
  ('COc1cc2nccc(Oc3ccc(NC(=O)C4(C(=O)Nc5ccc(F)cc5)CC4)cc3)c2cc1OC [Cabozantinib]', '%', 89.4),
  ('Cc1ccc(C(=O)Nc2ccc(CN3CCN(C)CC3)c(C(F)(F)F)c2)cc1C#Cc1cnc2cccnn12', '%', 105),
  ('Cn1c(Nc2ccc(C(F)(F)F)cc2)nc2cc(Oc3ccnc(-c4ncc(C(F)(F)F)[nH]4)c3)ccc21', '%', 92.1),
  ('CCN(CCCOc1ccc2c(Nc3cc(CC(=O)Nc4cccc(F)c4)[nH]n3)ncnc2c1)CCOP(=O)(O)O', '%', 102);

----------
Reported normalised viability values are given for each entry in this list.
# System: DU-4475
# Assay explanation: normalised viability (% of control), CellTiter-Blue; higher = more viable cells (about 100 = DMSO control)
# Measurement conditions: 100 nM; incubation time: 72 h
Assay readout: normalised viability (%)

INSERT INTO results (compound, endpoint_value) VALUES
  ('C[C@@H](Oc1cc(-c2cnn(C3CCNCC3)c2)cnc1N)c1c(Cl)ccc(F)c1Cl', 96.2),
  ('CNCc1ccc(-c2[nH]c3cc(F)cc4c3c2CCNC4=O)cc1', 83),
  ('CN(N=O)C(=O)N[C@@H](C=O)[C@@H](O)[C@H](O)[C@H](O)CO', 103),
  ('NCC(=O)CCC(=O)O', 110),
  ('Cc1ccc(-n2nc(C(C)(C)C)cc2NC(=O)Nc2ccc(OCCN3CCOCC3)c3ccccc23)cc1', 97.1),
  ('CC1(C)NC(=O)N(c2ccc([N+](=O)[O-])c(C(F)(F)F)c2)C1=O [Nilutamide]', 90.7),
  ('C=C(c1ccc(C(=O)O)cc1)c1cc2c(cc1C)C(C)(C)CCC2(C)C', 103);

----------
# Tested on: BT-474
# Assay explanation: normalised response (% of control), CellTiter-Glo; higher = more viable cells (100 = DMSO, 0 = benzethonium chloride kill control)
# Measurement conditions: incubation time: 72 h
// reported normalised response for each item listed
Assay readout: normalised response

INSERT INTO assay_data (compound, measurement_target, endpoint_value) VALUES
  ('Cc1ccc(C(=O)N(CCCN)[C@@H](c2oc3cc(Cl)ccc3c(=O)c2Cc2ccccc2)C(C)C)cc1 (10 nM)', 'BT-474', '97.9%'),
  ('Clc1ccc(Nc2nnc(Cc3ccncc3)c3ccccc23)cc1 [Vatalanib] (1 nM)', 'BT-474', '101%'),
  ('CC(=O)Nc1ccc(C(=O)Nc2ccccc2N)cc1 [Tacedinaline] (0.1 nM)', 'BT-474', '102%'),
  ('CC1(C)NC(=O)N(c2ccc([N+](=O)[O-])c(C(F)(F)F)c2)C1=O [Nilutamide] (1000 nM)', 'BT-474', '99.8%'),
  ('CN(N=O)C(=O)N[C@@H](C=O)[C@@H](O)[C@H](O)[C@H](O)CO [Streptozocin] (1000 nM)', 'BT-474', '107%'),
  ('N.N.[Cl][Pt][Cl] [Cisplatin] (100 nM)', 'BT-474', '102%'),
  ('N[C@@H](CSC(c1ccccc1)(c1ccccc1)c1ccccc1)C(=O)O [S-trityl-L-cysteine] (4000 nM)', 'BT-474', '102%'),
  ('Cn1c(Nc2ccc(C(F)(F)F)cc2)nc2cc(Oc3ccnc(-c4ncc(C(F)(F)F)[nH]4)c3)ccc21 [RAF265] (1 nM)', 'BT-474', '106%');

----------
# System: HDQ-P1
# Assay explanation: normalised response (% of control), CellTiter-Glo; higher = more viable cells (100 = DMSO, 0 = benzethonium chloride kill control)
# Measurement conditions: incubation time: 72 h
Below, each entry is listed alongside its reported normalised response.
Assay readout: normalised response (%)

INSERT INTO results (molecule, assay_readout, units_label, endpoint_value) VALUES
  ('C#Cc1cccc(Nc2ncnc3cc(OCCOC)c(OCCOC)cc23)c1 [Erlotinib] (10 nM)', 'normalised response', '%', 91.7),
  ('CCC1(c2ccc(N)cc2)CCC(=O)NC1=O (stereo not drawn) [Aminoglutethimide] (1000 nM)', 'normalised response', '%', 97),
  ('CC(C)Cn1cnc2c(N)nc3ccccc3c21 [Imiquimod] (2.5 nM)', 'normalised response', '%', 97.2);

----------
# Tested on: BT-474
# Assay explanation: normalised viability (% of control), CellTiter-Blue; higher = more viable cells (100 = DMSO, 0 = benzethonium chloride kill control)
# Measurement conditions: incubation time: 72 h
Assay readout: normalised viability (%)

INSERT INTO measurements (molecule, assay_readout, endpoint_value) VALUES
  ('CN(C)/N=N/c1[nH]cnc1C(N)=O [Dacarbazine] (1 nM)', 'normalised viability', 99.6),
  ('CCC1=C[C@@H]2CN(C1)Cc1c([nH]c3ccccc13)[C@@](C(=O)OC)(c1cc3c(cc1OC)N(C)[C@H]1[C@@](O)(C(=O)OC)[C@H](OC(C)=O)[C@]4(CC)C=CCN5CC[C@]31[C@@H]54)C2 [Vinorelbine] (1 nM)', 'normalised viability', 104),
  ('C[C@@H](Oc1cc(-c2cnn(C3CCNCC3)c2)cnc1N)c1c(Cl)ccc(F)c1Cl [Crizotinib] (1 nM)', 'normalised viability', 113);

----------
Overview of recorded drug sensitivity score for various molecules
# System: BT-549
# Assay explanation: drug sensitivity score (DSS), CellTiter-Glo (DSS (AUC-based score)); higher = stronger drug effect (viability inhibition or cytotoxicity); extreme values may be limits of the assay
# Measurement conditions: incubation time: 72 h
Assay readout: drug sensitivity score

INSERT INTO assay_data (molecule, measurement_target, assay_readout, endpoint_value) VALUES
  ('O=P1(NCCCl)OCCCN1CCCl (stereo not drawn) [Ifosfamide]', 'BT-549', 'drug sensitivity score', 0),
  ('COc1cc2nccc(Oc3ccc(NC(=O)C4(C(=O)Nc5ccc(F)cc5)CC4)cc3)c2cc1OC [Cabozantinib]', 'BT-549', 'drug sensitivity score', 0),
  ('Cn1c(Nc2ccc(C(F)(F)F)cc2)nc2cc(Oc3ccnc(-c4ncc(C(F)(F)F)[nH]4)c3)ccc21', 'BT-549', 'drug sensitivity score', 1.66),
  ('CN[C@@H]1C[C@H]2O[C@@](C)([C@@H]1OC)n1c3ccccc3c3c4c(c5c6ccccc6n2c5c31)C(=O)N[C@H]4O', 'BT-549', 'drug sensitivity score', 21.6),
  ('Cc1ccc(C(=O)N(CCCN)[C@@H](c2oc3cc(Cl)ccc3c(=O)c2Cc2ccccc2)C(C)C)cc1', 'BT-549', 'drug sensitivity score', 0),
  ('NC(=O)Nc1cc(-c2cccc(F)c2)sc1C(=O)N[C@H]1CCCNC1', 'BT-549', 'drug sensitivity score', 8.18),
  ('CO[C@H]1/C=C\C=C(/C)C(=O)NC2=CC(=O)C(NCCN(C)C)=C(C[C@@H](C)C[C@H](OC)[C@H](O)[C@@H](C)/C=C(\C)[C@@H]1OC(N)=O)C2=O', 'BT-549', 'drug sensitivity score', 16.1),
  ('CCC1=C[C@@H]2CN(C1)Cc1c([nH]c3ccccc13)[C@@](C(=O)OC)(c1cc3c(cc1OC)N(C)[C@H]1[C@@](O)(C(=O)OC)[C@H](OC(C)=O)[C@]4(CC)C=CCN5CC[C@]31[C@@H]54)C2', 'BT-549', 'drug sensitivity score', 20.7);
